# SYSTEM UNDER TEST: UniProt Q9NWZ3
# Sequence (Q9NWZ3 1-460): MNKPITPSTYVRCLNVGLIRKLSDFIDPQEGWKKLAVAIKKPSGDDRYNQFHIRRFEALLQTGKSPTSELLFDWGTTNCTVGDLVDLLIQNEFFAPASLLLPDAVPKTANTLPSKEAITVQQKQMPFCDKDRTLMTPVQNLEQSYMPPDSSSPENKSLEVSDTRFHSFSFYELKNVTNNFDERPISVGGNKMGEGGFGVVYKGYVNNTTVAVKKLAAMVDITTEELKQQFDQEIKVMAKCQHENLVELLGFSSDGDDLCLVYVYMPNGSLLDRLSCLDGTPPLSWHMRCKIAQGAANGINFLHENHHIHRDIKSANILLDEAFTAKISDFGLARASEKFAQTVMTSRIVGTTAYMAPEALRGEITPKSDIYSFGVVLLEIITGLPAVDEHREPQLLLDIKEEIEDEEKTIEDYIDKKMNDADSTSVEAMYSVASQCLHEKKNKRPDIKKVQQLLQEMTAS
# RUN DESCRIPTION: OCI-LY-10 MSD assay for IRAK4 DC50
# Format: cell-based
# Design: endogenous in cells; host or cells: OCI-LY10
# ASSAY CONDITIONS: OCI-LY10 cells, 4 hr incubation, concentration required to degrade 50% of protein
Reported values of DC50 for individual entries

INSERT INTO results (compound, experimental_result) VALUES
  ('CN[C@@H](C)C(=O)N[C@H](C(=O)N1Cc2cc(OCCOCCOCCOCCOCCNCc3nn(C)cc3NC(=O)c3coc(-c4ccnc(NCC(F)(F)F)c4)n3)ccc2C[C@H]1C(=O)N[C@@H]1CCCc2ccccc21)C(C)(C)C', '> 1000 nM'),
  ('Cn1c(=O)n([C@@H]2CCC(=O)NC2=O)c2ccc(CCCCOCCCCNCc3ccc(-n4cc(NC(=O)c5coc(-c6ccnc(NCC7CC7)c6)n5)c(C(F)F)n4)cc3)cc21 (single isomer, unassigned)', '< 50 nM'),
  ('Cn1cc(NC(=O)c2coc(-c3ccnc(NCC(F)(F)F)c3)n2)c(C(=O)NCCOCCOCCOCCNc2cccc3c2C(=O)N(C2CCC(=O)NC2=O)C3=O)n1 (centres unmarked)', '> 1000 nM'),
  ('NC(=O)c1nn(-c2ccc(CNCC3CN(CCOCCNc4cccc5c4C(=O)N(C4CCC(=O)NC4=O)C5=O)CCO3)cc2)cc1NC(=O)c1coc(-c2ccnc(NCC(F)(F)F)c2)n1 (centres unmarked)', '< 50 nM');

# input for lookup
Endpoint output: DC50 of O=C1CCC(N2C(=O)c3cccc(NCCOCCOCCNC(=O)c4ccc(-n5cc(NC(=O)c6coc(-c7ccnc(NCC(F)(F)F)c7)n6)c(N6CCN(CCO)C6=O)n5)cc4)c3C2=O)C(=O)N1 (centres unmarked) . Value? < 50 nM

Reference for the values: patent US10874743B2
